# target: acyl CoA:cholesterol acyltransferase (ACAT)
# testProtocol: Assay for ACAT inhibitory activity using hepatic microsomes, cholesterol and 14C-labeled oleoyl-CoA
# Format: biochemical
# recordedConditions: calculated from the μg/ml value and molecular weight
Listed compounds paired with reported pIC50
pIC50 field: float, defined as -log10 of concentration (mol/L).

[
  {
    "compound": "CC(=O)OC1CC[C@@]2(C)C(CC[C@@]3(C)Oc4cc(-c5ccccc5)oc(=O)c4CC23)C1(C)C (some centres unmarked) [phenylpyropene C]",
    "pIC50": 4.80
  }
]

# input for lookup
## Input Which pIC50 value is on record for CC(=O)OCC1(C)C(OC(C)=O)CC[C@@]2(C)C1CC[C@@]1(C)Oc3cc(-c4ccccc4)oc(=O)c3CC21 (some centres unmarked) [phenylpyropene B] ?
## Output 4.89

Every entry's value here was drawn from patent US20090182014A1.
